Hello, the source for this data is patent US8609692B2, in case you need it.

Provide the recorded IC50 for the entries that follow.
target: human TRPV1 receptor (hTRPV1) (Homo sapiens, UniProt Q8NER1); test: Capsaicin activation assay (Ca2+ influx, FLIPR); settings: 0.05 μM capsaicin, 1321N1 cells expressing hTRPV1
Sequence (Q8NER1 whole entry): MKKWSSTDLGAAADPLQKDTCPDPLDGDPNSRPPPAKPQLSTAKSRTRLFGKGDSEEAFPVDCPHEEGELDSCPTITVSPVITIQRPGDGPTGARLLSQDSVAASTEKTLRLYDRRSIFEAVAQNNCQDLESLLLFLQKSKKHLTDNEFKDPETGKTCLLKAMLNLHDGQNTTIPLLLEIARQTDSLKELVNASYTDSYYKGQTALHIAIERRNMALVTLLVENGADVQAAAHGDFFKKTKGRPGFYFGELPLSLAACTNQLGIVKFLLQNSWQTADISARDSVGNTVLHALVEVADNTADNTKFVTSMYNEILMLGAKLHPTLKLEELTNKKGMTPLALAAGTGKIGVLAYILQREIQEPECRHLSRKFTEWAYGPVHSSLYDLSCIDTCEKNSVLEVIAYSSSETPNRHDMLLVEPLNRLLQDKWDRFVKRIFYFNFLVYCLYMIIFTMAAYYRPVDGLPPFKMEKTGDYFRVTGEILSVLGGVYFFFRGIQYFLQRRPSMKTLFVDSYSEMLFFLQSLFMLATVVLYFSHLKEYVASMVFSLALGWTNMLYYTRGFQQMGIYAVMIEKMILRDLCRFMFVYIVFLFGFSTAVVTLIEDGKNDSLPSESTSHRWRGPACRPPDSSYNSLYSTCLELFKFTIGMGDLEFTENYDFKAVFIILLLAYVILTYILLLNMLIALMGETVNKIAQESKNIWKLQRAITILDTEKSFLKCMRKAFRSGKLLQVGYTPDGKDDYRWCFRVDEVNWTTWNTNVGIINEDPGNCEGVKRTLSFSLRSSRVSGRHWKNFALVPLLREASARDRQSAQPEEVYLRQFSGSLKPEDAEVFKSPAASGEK
Report only the number, with the unit nM understood.

Notebook: Cn1ncc2c(NC(=O)N[C@@H]3CCOc4c(OC(F)(F)F)cccc43)cccc21 , IC50 read as 4

Notebook: CC1(C)C[C@@H](NC(=O)Nc2cccc3ccncc23)c2ccc(C(F)(F)F)cc2O1 , IC50 read as 28

Notebook: CC1(C)C[C@@H](NC(=O)Nc2cccc3c2C[C@H](O)CC3)c2cc(F)ccc2O1 , IC50 read as 30

Notebook: Cn1ncc2c(NC(=O)N[C@@H]3CC(C)(C)Oc4c3cccc4C(F)(F)F)cccc21 , IC50 read as 20

Notebook: CCC1(CC)C[C@@H](NC(=O)Nc2cccc3c2C[C@H](O)CC3)c2ccc(Cl)cc2O1 , IC50 read as 10

Notebook: Cc1cc2c(NC(=O)N[C@@H]3CC(C)(C)Oc4c3ccc(C(F)(F)F)c4F)cccc2cn1 , IC50 read as 7

Notebook: CCC1(CC)C[C@@H](NC(=O)Nc2cccc3c2cnn3C)c2ccc(F)cc2O1 , IC50 read as 17

Notebook: O=C(Nc1cccc2c1C[C@@H](O)CC2)N[C@@H]1CC(CF)(CF)Oc2cc(C(F)(F)F)ccc21 , IC50 read as 34

* * *

molecular target: human TRPV1 receptor (hTRPV1) (Homo sapiens); assay: Capsaicin activation assay (Ca2+ influx, FLIPR); conditions: 0.05 μM capsaicin, 1321N1 cells expressing hTRPV1
Provide the recorded pIC50 for the entries that follow.
# reply with the number alone; pIC50 is -log10 of concentration in mol/L

Notebook: CC1(C)C[C@@H](NC(=O)Nc2cccc3c2C[C@@H](O)CC3)c2ccc(F)c(Cl)c2O1 [Example 109] , pIC50 read as 7.68

Notebook: O=C(Nc1cccc2[nH]ncc12)N[C@@H]1CCOc2c1cccc2C(F)(F)F [Example 63] , pIC50 read as 8.00

Notebook: CCC1(CC)C[C@@H](NC(=O)Nc2cccc3c2C[C@@H](O)CC3)c2cc(F)ccc2O1 [Example 73] , pIC50 read as 8.05

Notebook: CCC1(CC)C[C@@H](NC(=O)Nc2cccc3c2cnn3C)c2cc(F)cc(F)c2O1 [Example 60] , pIC50 read as 7.66

Notebook: Cn1ncc2c(NC(=O)N[C@@H]3CCOc4c3cccc4C(F)(F)F)cccc21 [Example 59] , pIC50 read as 7.80

Notebook: O=C(Nc1cccc2c1C[C@H](O)CC2)N[C@@H]1CC(CF)(CF)Oc2cc(F)ccc21 [Example 89] , pIC50 read as 7.54

Notebook: CCC1(CC)C[C@@H](NC(=O)Nc2cccc3c2C[C@@H](O)CC3)c2ccc(F)cc2O1 [Example 71] , pIC50 read as 8.05

Notebook: Cc1cc2c(NC(=O)NC3CC(C)(C)Oc4c3ccc(N3CCCCC3)c4F)cccc2cn1 (centres unmarked) [Example 117] , pIC50 read as 7.09

* * *

Provide the recorded Δ Temp for the entries that follow.
assay: Rat telemetry protocol (core body temperature); type: in vivo; settings: core body temperature of rats at one hour post dosing (100 μmol/kg, p.o.), relative to vehicle
Please answer using the number first and the unit second.

Notebook: CCC1(CC)C[C@@H](NC(=O)Nc2cccc3c2cnn3C)c2cc(F)cc(F)c2O1 [Example 60] , Δ Temp read as 0.7 °C

Notebook: O=C(Nc1cccc2c1C[C@H](O)CC2)N[C@@H]1CC(CF)(CF)Oc2cc(F)ccc21 [Example 89] , Δ Temp read as 1.3 °C

Notebook: Cc1cc2c(NC(=O)N[C@@H]3CC(C)(C)Oc4cc(C(F)(F)F)ccc43)c(F)ccc2cn1 [Example 125] , Δ Temp read as 0.5 °C

Notebook: O=C(Nc1cccc2[nH]ncc12)N[C@@H]1CCOc2c1cccc2C(F)(F)F [Example 63] , Δ Temp read as 1.0 °C

Notebook: CC1(C)C[C@@H](NC(=O)Nc2cccc3[nH]ncc23)c2ccc(F)cc2O1 [Example 29] , Δ Temp read as 1.2 °C

Notebook: CC1(C)C[C@@H](NC(=O)Nc2cccc3c2C[C@@H](O)CC3)c2ccc(Cl)cc2O1 [Example 103] , Δ Temp read as 1.3 °C

Notebook: CCC1(CC)C[C@@H](NC(=O)Nc2cccc3c2C[C@@H](O)CC3)c2cc(F)ccc2O1 [Example 73] , Δ Temp read as 0.9 °C

Notebook: CCC1(CC)C[C@@H](NC(=O)Nc2cccc3ccncc23)c2ccc(F)cc2O1 [Example 82] , Δ Temp read as 1.5 °C

* * *

Provide the recorded Δ Temp for the entries that follow.
test: Rat telemetry protocol (core body temperature); format: in vivo; conditions: core body temperature of rats at one hour post dosing (100 μmol/kg, p.o.), relative to vehicle
Report only the number, with the unit °C understood.

Notebook: Cc1cc2c(NC(=O)N[C@@H]3CC(C)(C)Oc4c3ccc(C(F)(F)F)c4F)cccc2cn1 , Δ Temp read as 0.8

Notebook: Cn1ncc2c(NC(=O)N[C@@H]3CC(C)(C)Oc4c3cccc4C(F)(F)F)cccc21 , Δ Temp read as 0.6

Notebook: CC1(C)C[C@@H](NC(=O)Nc2cccc3c2C[C@H](O)CC3)c2ccc(OC(F)(F)F)cc2O1 , Δ Temp read as 1.2

Notebook: Cc1cc2c(NC(=O)N[C@@H]3CC(C)(C)Oc4cc(OC(F)(F)F)ccc43)cccc2cn1 , Δ Temp read as 1.7

Notebook: CCC1(CC)C[C@@H](NC(=O)Nc2cccc3c2C[C@@H](O)CC3)c2ccc(Cl)cc2O1 , Δ Temp read as 1.3

Notebook: Cc1cc2c(NC(=O)NC3CC(C)(C)Oc4c3ccc(N3CCCCC3)c4F)cccc2cn1 (centres unmarked) , Δ Temp read as 1.0

Notebook: CCC1(CC)C[C@@H](NC(=O)Nc2cccc3c2cnn3C)c2ccc(F)cc2O1 , Δ Temp read as 0.7

Notebook: CC1(C)C[C@@H](NC(=O)Nc2cccc3c2C[C@@H](O)CC3)c2cc(F)ccc2O1 , Δ Temp read as 0.6

Notebook: CC1(C)C[C@@H](NC(=O)Nc2cccc3[nH]ncc23)c2cccc(C(F)(F)F)c2O1 , Δ Temp read as 0.5

Notebook: CCCC1(CCC)C[C@@H](NC(=O)Nc2cccc3c2C[C@H](O)CC3)c2cc(F)ccc2O1 , Δ Temp read as 0.7

Notebook: Cn1ncc2c(NC(=O)N[C@@H]3CCOc4c3cccc4C(F)(F)F)cccc21 , Δ Temp read as 0.5

Notebook: Cn1ncc2c(NC(=O)N[C@@H]3CC(C)(C)Oc4cc(C(F)(F)F)ccc43)cccc21 , Δ Temp read as 1.4

Notebook: CC1(C)C[C@@H](NC(=O)Nc2cccc3cnc(N)cc23)c2ccc(C(F)(F)F)cc2O1 , Δ Temp read as 1.0

Notebook: CCC1(CC)C[C@@H](NC(=O)Nc2cccc3c2C[C@H](O)CC3)c2cccc(F)c2O1 , Δ Temp read as 1.2

Notebook: CCC1(CC)C[C@@H](NC(=O)Nc2cccc3c2C[C@H](O)CC3)c2ccc(F)cc2O1 , Δ Temp read as 0.9

Notebook: CC1(C)C[C@@H](NC(=O)Nc2cccc3c2C[C@H](O)CC3)c2ccccc2O1 , Δ Temp read as 0.7

Notebook: CCC1(CC)C[C@@H](NC(=O)Nc2cccc3c2C[C@H](O)CC3)c2cc(F)ccc2O1 , Δ Temp read as 1.0

Notebook: Cn1ncc2c(NC(=O)N[C@@H]3CC(CF)(CF)Oc4cc(OC(F)(F)F)ccc43)cccc21 , Δ Temp read as 0.8

Notebook: CC1(C)C[C@@H](NC(=O)Nc2cccc3c2C[C@H](O)CC3)c2ccc(F)cc2O1 , Δ Temp read as 1.1

Notebook: Cn1ncc2c(NC(=O)N[C@@H]3CC(C)(C)Oc4cc(OC(F)(F)F)ccc43)cccc21 , Δ Temp read as 0.7

Notebook: CC1(C)C[C@@H](NC(=O)Nc2cccc3c2C[C@H](O)CC3)c2cc(F)cc(F)c2O1 , Δ Temp read as 1.4

Notebook: CC1(C)C[C@@H](NC(=O)Nc2cccc3ccncc23)c2ccc(C(F)(F)F)cc2O1 , Δ Temp read as 1.5

Notebook: CC1(C)C[C@@H](NC(=O)Nc2cccc3c2C[C@@H](O)CC3)c2ccc(F)c(F)c2O1 , Δ Temp read as 0.6

Notebook: CCC1(CC)C[C@@H](NC(=O)Nc2cccc3c2cnn3C)c2ccc(C(F)(F)F)cc2O1 , Δ Temp read as 1.3

Notebook: CCC1(CC)C[C@@H](NC(=O)Nc2cccc3c2cnn3C)c2ccc(Cl)cc2O1 , Δ Temp read as 0.6

Notebook: CCC1(CC)C[C@@H](NC(=O)Nc2cccc3c2C[C@H](O)CC3)c2ccc(Cl)cc2O1 , Δ Temp read as 1.0

Notebook: Cn1ncc2c(NC(=O)N[C@@H]3CCOc4c(OC(F)(F)F)cccc43)cccc21 , Δ Temp read as 1.5

Notebook: CCC1(CC)C[C@@H](NC(=O)Nc2cccc3c2cnn3C)c2cccc(C(F)(F)F)c2O1 , Δ Temp read as 1.0

Notebook: O=C(Nc1cccc2c1C[C@@H](O)CC2)N[C@@H]1CC2(CCC2)Oc2ccc(F)cc21 , Δ Temp read as 0.9

Notebook: CC1(C)C[C@@H](NC(=O)Nc2cccc3c2C[C@H](O)CC3)c2ccc(F)c(Cl)c2O1 , Δ Temp read as 1.2

Notebook: O=C(Nc1cccc2c1C[C@H](O)CC2)N[C@@H]1CC(CF)(CF)Oc2cc(Cl)ccc21 , Δ Temp read as 1.1

Notebook: CC1(C)C[C@@H](NC(=O)Nc2cccc3cnccc23)c2ccc(OC(F)(F)F)cc2O1 , Δ Temp read as 0.8
